Assignment: determine reported TGI for the given compounds.
Test system: MDA-N
Assay: NCI tumour cell line growth inhibition, 48 h

What measured TGI is associated with C[C@H](CCc1nc(C#N)c(N)o1)[C@H]1CC[C@H]2[C@@H]3[C@@H](O)CC4C[C@@H](O)CC[C@]4(C)[C@H]3C[C@@H](O)[C@]12C (some centres undefined) on MDA-N?
77.8 µM

# return TGI for each item in the list
1. COC(=O)[C@]1(c2cc3ccccc3[nH]2)CC2CN(CC(=O)N(C)OC)C1C1OC(C)(C)OC21 (some centres undefined)
2. CCOC(=O)c1sc2nc(SC)nc(Nc3ccc(OC)c(OC)c3)c2c1N
3. CC(C)(C)OC(=O)C(C1NC(C(=O)O)C(C)(C)S1)N1C(=O)c2ccccc2C1=O (centres undefined)
4. O=C(O)[C@@H]1C[C@@H](O)CN1
5. c1ccc(C2CC(N3CCOCC3)=Nc3ccccc3N2)cc1 (centres undefined)
6. O=C1c2c(Br)sc(Br)c2[C@H]2NC(=S)O[C@@H]12
7. CC(=O)OCCn1c(Cc2ccc([N+](=O)[O-])cc2)nn(C(C)=O)c1=O
8. CC(C)(C)SC1=CCC[C@@H](P(=O)(c2ccccc2)c2ccccc2)[C@@H]2CCC[C@@H]12

["> 100 µM", "> 100 µM", "> 100 µM", "> 100 µM", "> 100 µM", "30.6 µM", "> 100 µM", "30.3 µM"]

* * *

System: MDA-MB-231 breast
Assay: NCI tumour cell line growth inhibition, 48 h
Where a SMILES comes first, the peptide text is derived from it. [ ]: non-standard residue; d: D form. 2Nal = N[CH](Cc1ccc2ccccc2c1)C(=O)O
For each entry below, report its TGI value.

Some molecules with recorded TGI:
Fill blank: measured TGI of the molecule Cc1ccc(S(=O)(=O)C2=c3ncccc3=C3C(=O)c4ccccc4C(=O)C32)cc1 (stereo not drawn) is ____.
> 100 µM

Name the reported TGI value associated with the molecule `Cc1sc(N=Nc2c(O)[nH]c3ccccc23)nc1-c1ccccc1`
33.3 µM

Now for a further molecule.
Param item = CC(NC(=O)C(N)Cc1ccccc1)C(=O)NC(Cc1ccc(O)cc1)C(=O)NC(Cc1c[nH]c2ccccc12)C(=O)NC(CCCCN)C(=O)NC(C(=O)NC(C)C(=O)NC(Cc1ccc2ccccc2c1)C(N)=O)C(C)C (stereo not drawn) (H-FAYWKVA[2Nal]-NH2; configuration not given here) ; retrieve measured TGI.
> 12.5 µM

* * *

Test system: RPMI-8226 leukemia
Experiment: NCI tumour cell line growth inhibition, 48 h
OBSERVED PROPERTY: TGI (µM)
Answers are plain numbers, in µM.

Worked examples, 5 molecules total:
Form field - read-out: TGI; system: RPMI-8226 leukemia; submitted item: `O=[N+]([O-])c1ccc2nc(N/N=C/c3ccc(O)cc3)sc2c1`
15.8

Record CC(C)(C)C1CCC2c3c([nH]c4ccccc34)C3C(=O)N(c4ccc(Br)cc4)C(=O)C3C2C1 (configuration not stated) : what is its TGI with RPMI-8226 leukemia?
38.6

Enter reported TGI observed with RPMI-8226 leukemia for `COc1ccc2cc(C(=O)/C=C/c3ccc(OC)c(OC)c3)ccc2c1`
20.3

Param readout = TGI; param system = RPMI-8226 leukemia; param query = `NC(=O)c1c(OCc2c(F)cc(Br)cc2F)nsc1NC(=O)NCCCCN1CCCC1` ; response: value
6

Kindly state the measured TGI obtained for `O=C(C#Cc1c[nH]c(=O)[nH]c1=O)c1ccccc1` with RPMI-8226 leukemia.
30.1

I need TGI for every entry listed below, if you could help.
1. N#Cc1ccc(-n2cnc(NC(=O)[C@H]3CCN(C#N)C3)c2)cc1
2. Cc1[nH]n(-c2ccccc2)c(=S)c1C(=O)c1ccccc1

1: 7.46; 2: 50.2

Hi! Can you tell me TGI for each of these molecules?
1. Clc1ccc2c(NCCNc3nc(-c4ccccc4)cc(-c4ccccc4)n3)ccnc2c1
2. O=C(O)/C(O)=C1/C=C(c2ccccc2)c2ccccc21

[5.1, 56.8]
